Let's look at some compounds and their measured inhibition.
- systemTested: Small ubiquitin-related modifier 1 (Homo sapiens)
- assayText: modulators of SUMO1 protein-protein interactions, primary screen, biochemical, uHTS (AID 602429)
- conditions: SUMO1 binding to a labelled peptide, TR-FRET, 1 h; at 20 µM; active compounds read high
The campaign covered roughly 360,000 compounds. About 1,200 (0.33%) were called active. The full list was thinned out, with actives kept by preference.

# compound, inhibition / %
records = [
    ("COc1ccc2c(-c3ccccc3)cc(SCC(=O)N(C)C3CCS(=O)(=O)C3)nc2c1 (stereo unspecified)", 0.193),
    ("COc1ccc(C(=O)NCc2ccccc2C)cc1S(=O)(=O)NC1CCCC1", 0.24),
    ("COCCNC(=O)c1ccc2nc(Cc3ccc(OC)c(OC)c3)oc2c1", 0.593),
    ("CCC(C(=O)N1CCOCC1)n1c(C(=O)OC)cc2occc21 (stereo unspecified)", 0.0718),
    ("COc1cccc(-c2cc3nc4c(c(N5CCC6(CC5)OCCO6)n3n2)CCCC4)c1", 1.23),
    ("COc1cc(CCN=Cc2ccccc2O)c([N+](=O)[O-])cc1OC", -13),
    ("O=C(Nc1cccc(-c2nc3ccccc3[nH]2)c1)c1ccc(C(=O)Nc2cccc(-c3nc4ccccc4[nH]3)c2)cc1", 56.6),
    ("O=C(c1cc(-c2ccco2)nc2ccccc12)N(Cc1nnc(-c2ccc(Cl)cc2)o1)C1CC1", 5.63),
    ("COCCNC(=S)Nc1cc(S(=O)(=O)N2CCOCC2)ccc1N1CCCCC1", 1.91),
    ("COc1ccc(OC)c(Nc2nc3ccccc3n3cnnc23)c1", 47.2),
    ("CCOc1ccc(C(=O)Nc2cccc(SC)c2)cc1", -1.79),
    ("COc1cc(Nc2nc3ccc(Cl)cc3n3cnnc23)cc(OC)c1OC", -1.84),
    ("CCCc1noc2c1/C(=N\\O)CCC2", 1.7),
    ("CN1C(=O)c2ccccc2C(C(=O)NCCCN2CCCC2)C1c1c[nH]c2ccccc12 (stereo unspecified)", 3),
    ("O=C(COc1coc(CN2CCN(c3ccccc3)CC2)cc1=O)N1CCc2ccccc21", -4.23),
    ("CCOc1cc(-c2conc2N)cc(OCC)c1OCC", 1.02),
    ("C=CC1=C(C(=O)O)N2C(=O)[C@@H](NC(=O)/C(=N\\OCC(=O)O)c3csc(N)n3)[C@H]2SC1", 56.1),
    ("O=C(COc1coc(CN2CCN(c3ccccc3F)CC2)cc1=O)N1CCc2ccccc21", 47.1),
    ("NC(=S)NN=C1CCCC(C(F)(F)F)C1 (stereo unspecified)", -4.43),
    ("O=[N+]([O-])c1cc(Cl)cc(/C=N/NC(=S)Nc2cc(S(=O)(=O)N3CCOCC3)ccc2Cl)c1O", 36.3),
    ("C=CCn1c(=S)[nH]c2scc(-c3ccco3)c2c1=O", 80.7),
]

----------
Let's look at some molecules and their measured inhibition.
- systemTested: Small ubiquitin-related modifier 1 (Homo sapiens) (UniProt P63165)
- Sequence (P63165 whole entry, looked up): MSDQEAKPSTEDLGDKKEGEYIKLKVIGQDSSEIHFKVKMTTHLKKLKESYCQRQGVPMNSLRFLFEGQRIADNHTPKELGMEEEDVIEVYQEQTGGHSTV
- assayText: modulators of SUMO1 protein-protein interactions, primary screen, biochemical, uHTS (AID 602429)
- conditions: SUMO1 binding to a labelled peptide, TR-FRET, 1 h; at 20 µM; active compounds read high
The campaign covered roughly 360,000 compounds. About 1,200 (0.33%) were called active. This is one part of a sample in which actives are shown more often than they occur.
quantityKind: inhibition (%)

# molecule, quantityKind, measuredValue
records = [
    ("CCc1nn(CC(=O)N2CCN(c3cc(C)ccc3C)CC2)c(=O)c2cc3occc3n12", "inhibition", 2.09),
    ("O=C(Nc1ccc(N2CCN(C(=O)c3cccs3)CC2)cc1)c1cccnc1Cl", "inhibition", -1.91),
    ("COc1ccc(NC(=O)Cn2c(-c3ccc(OC)cc3)cn(-c3ccc(C)cc3)c2=O)cc1", "inhibition", 5.25),
    ("CC(C)(C)NC(=O)C(c1ccco1)N(Cc1ccc2c(c1)OCO2)C(=O)Cn1nnc2ccccc21 (stereo unspecified)", "inhibition", 1.87),
    ("COc1cc(C(=O)OCC(=O)NC23CC4CC(CC(C4)C2)C3)cc(OC)c1OC", "inhibition", 5.78),
    ("Cc1ccc(S(=O)(=O)NCCSC(C)(C)C)cc1", "inhibition", 2.52),
    ("Cc1ccc(NC(=O)c2oc(=O)c3ccccc3c2-c2ccccc2)c(C)c1", "inhibition", 3.85),
    ("Cn1c(=O)c2cc(S(=O)(=O)NCCC(=O)Nc3ccc(F)cc3F)ccc2n(C)c1=O", "inhibition", -1.62),
    ("COc1nc(Oc2ccc(=O)n(C)n2)nc(N(C)C)n1", "inhibition", -2.1),
    ("CC(C)C(C(=O)NCc1ccco1)N(CC1CCCO1)C(=O)CNS(=O)(=O)c1ccc(F)cc1 (stereo unspecified)", "inhibition", 4.85),
    ("O=C(c1ccc2c(c1)OCCO2)C1CCN(S(=O)(=O)c2cccc(F)c2)CC1", "inhibition", -0.625),
    ("CC(=O)c1c(C)[nH]c(C(=O)COC(=O)c2cccc(S(=O)(=O)N(C)c3ccccc3)c2)c1C", "inhibition", 0.686),
    ("CCc1nc2ccc(C(=O)N(C)Cc3ccco3)cn2c1N(C)C(=O)Cc1ccccc1", "inhibition", 3.29),
    ("COc1nc(N(C)C)nc(N2CC(=O)N(CCNS(=O)(=O)c3ccc(C)cc3)C2=N)n1", "inhibition", 44),
    ("COc1ccc2[nH]c(=O)c(-c3noc(-c4ccc(F)cc4)n3)cc2c1", "inhibition", 64),
    ("COc1ccc(-n2nnnc2SCC(=O)NCc2cccs2)cc1", "inhibition", 43.1),
    ("CC(=O)Nc1cc(-c2ccc(N3CCN(C)CC3)cc2)cn2c(-c3ccc(F)cc3)cnc12", "inhibition", -43.3),
    ("CSc1cc(C)n(-c2ccccc2C)c(=S)c1C(C)=O", "inhibition", -3.72),
    ("COc1ccc(NC(=O)CSc2nnnn2-c2cccc(OC)c2)cc1", "inhibition", -3.25),
    ("CCCc1nn(C)c2c(=O)[nH]c(-c3cc(S(N)(=O)=O)ccc3OCC)nc12", "inhibition", 3.1),
    ("CN(CC(=O)NC1CCN(Cc2ccccc2)CC1)S(=O)(=O)c1ccc(Cl)s1", "inhibition", 0.847),
]

----------
- systemTested: Small ubiquitin-related modifier 1 (Homo sapiens) (UniProt P63165)
- assayText: modulators of SUMO1 protein-protein interactions, primary screen, biochemical, uHTS (AID 602429)
- conditions: SUMO1 binding to a labelled peptide, TR-FRET, 1 h; at 20 µM
Screen size: about 360,000 compounds; about 1,200 (0.33%) were called active. Cut-off read from the data, not from the text of the source: active = inhibition above about 37%; inactive = the rest. The sample as a whole holds a higher share of actives than the screen did.
Possible outcomes: 1 = active, -1 = inactive

# compound, discreteLabel
rows = [
    ("COc1c(F)c(F)c(-c2csc(N)n2)c(F)c1F", -1),
    ("COC(=O)c1cccc(NC(=O)CN2CCC(NC(=O)c3cc(OC)c(OC)c(OC)c3)CC2)c1", -1),
    ("CCCCNC(=O)Nc1c(C)cc(SC#N)cc1C", -1),
    ("CCCc1cc(=S)n2c([nH]c3ccccc32)c1C#N", 1),
    ("CC1CCN(C(=O)COC(=O)c2cc(=O)[nH]c3ccccc23)CC1", -1),
    ("COc1ccc2c(C)c(CCC(=O)NC3CC3)c(=O)oc2c1C", -1),
    ("CC(=O)c1nn(-c2ccccc2)c(=Nc2ccccc2)cc1C", -1),
    ("CCCn1c(N)c(C(=O)CSc2nc3ccccc3c(=O)n2-c2ccc(OC)cc2)c(=O)[nH]c1=O", 1),
    ("Cc1ccc(SC(CC(=O)c2ccc(C(C)(C)C)cc2)C(=O)O)cc1 (stereo not given)", -1),
    ("Nc1ccc2[nH]c(=S)sc2c1", 1),
    ("CCC1(C)COC(c2ccc(OC)c(OC)c2)OC1 (stereo not given)", -1),
    ("CCOc1ccc(C(=O)NCC(=O)N2CCN(c3ccc(C(F)(F)F)cn3)CC2)cc1", -1),
    ("O=C(COc1ccc([N+](=O)[O-])cc1Cl)Nc1ccc2[nH]c(=O)[nH]c2c1", -1),
    ("O=C(CSc1cccc[n+]1[O-])NCCCc1ccccc1", -1),
    ("C=C(Br)CN1CCN(CC(=C)Br)CC1", -1),
    ("COc1ccccc1CNS(=O)(=O)c1cc(C(=O)NCc2ccccn2)c(Cl)cc1Cl", -1),
    ("CC(=O)c1c(OCC(=O)N(C)C2CCCCC2)ccc2c(C)cc(=O)oc12", -1),
    ("COc1ccccc1NC(=O)C1=C(C)Nc2nnnn2C1c1cccc(Br)c1 (stereo not given)", 1),
    ("COc1ccc(-c2oc3ncn(Cc4ccco4)c(=N)c3c2-c2ccc(OC)cc2)cc1", -1),
    ("CCOC(=O)Cn1nnnc1C", -1),
    ("O=c1[nH]c2ccccc2s1", -1),
    ("COC(=O)c1cc2occc2n1Cc1nc(-c2ccccc2C)oc1C", -1),
    ("Cn1c2ccccc2c(=O)c2c(=O)n(Cc3ccco3)c(COc3ccccc3)nc21", 1),
    ("CCOC(=O)C1=C(COC(=O)[C@H](C)NS(=O)(=O)c2ccccc2F)NC(=O)NC1C (stereo not given in full)", -1),
    ("O=C(CNC(=O)[C@@H]1Cc2ccccc2CN1)NC1CCCCC1", -1),
    ("O=C(COC(=O)c1cccc(Cl)c1)Nc1ccc2[nH]c(=O)[nH]c2c1", -1),
    ("CCOc1ccc2[nH]c(=S)sc2c1", -1),
    ("CCCCn1c(N)c(N(CC(C)C)C(=O)C2CSC3(C)CCC(=O)N23)c(=O)[nH]c1=O (stereo not given)", -1),
    ("COc1cc(NC(=O)c2ccc(CNc3c(N4CCCC4)c(=O)c3=O)cc2)cc(OC)c1OC", 1),
    ("O=C(O)c1ccccc1OCc1ccccc1Cl", -1),
    ("O=C(NCc1ccco1)C(=O)c1cn(CC(=O)N2CCCCCC2)c2ccccc12", -1),
    ("O=C(Cn1nnc(-c2ccccc2)n1)N/N=C/c1ccc(-c2ccc(Cl)cc2)o1", -1),
    ("CCOc1ccc(NC(=O)c2ccc(NC(=O)COC(=O)c3ccc(NC(=O)CC#N)cc3)cc2)cc1", 1),
    ("CCCNC(=O)C1(C)CCN(C(=O)c2cc(F)ccc2C)C1 (stereo not given)", -1),
    ("O=C(CN1CCCCCC1)Nc1c(Cl)cc(Cl)cc1Cl", -1),
    ("O=C(NC1CCCCC1)c1ccc(CNc2c(N3CCOCC3)c(=O)c2=O)cc1", -1),
    ("O=C(Nc1cccnc1)c1cc2cc(Br)ccc2oc1=O", 1),
    ("O=C(Nc1cccnc1)c1ccc(Cl)cc1[N+](=O)[O-]", -1),
    ("O=C(Cc1ccsc1)N1CCN(S(=O)(=O)c2cc(C(F)(F)F)cc(C(F)(F)F)c2)CC1", -1),
    ("COc1ccc(S(=O)(=O)N2CCOCC2)c(C)c1C", -1),
    ("CCC(C)N1C(=O)S/C(=C/c2ccc(Sc3nc4ccccc4[nH]3)o2)C1=O (stereo not given)", -1),
    ("COc1ccc(C(=O)OCC(=O)Nc2ccc3[nH]c(=O)[nH]c3c2)c(OC)c1OC", 1),
    ("O=C(NCc1ccccc1)c1ccc(CNc2c(N3CCCC3)c(=O)c2=O)cc1", -1),
    ("CCCC(C(=O)n1nc(C)cc1C)C(NS(=O)(=O)c1ccc(C)cc1)c1ccccc1 (stereo not given)", -1),
    ("CC(=O)c1c(C)[nH]c(C(=O)CN2C(=O)NC(C)(C)C2=O)c1C", -1),
]
